# Tested on: LOVO
# Assay Details: cells
# Settings: Homo sapiens, read-out: LC50 LOVO
Result Type: CC50

Compound: COC1=C(C)C(=O)C2=C(C1=O)C(CNC(=O)C(C)N)N1C(O)C3Cc4cc(C)c(OC)c(O)c4C(N3)C1C2 (stereo not shown) [Safracin D]
Target Of Assay: LOVO
Result Type: CC50
Meas Value: > 19 µM

Compound: CCOC1=C(C)C(=O)C2=C(C1=O)C(CNC(=O)C(C)N)N1C(O)C3Cc4cc(C)c(OCC)c(O)c4C(C1C2)N3C (stereo not shown) [Safracin B (OEt)]
Target Of Assay: LOVO
Result Type: CC50
Meas Value: > 17.6 µM

Compound: COC1=C(C)C(=O)C2=C(C1=O)C(CNC(=O)C(C)N)N1CC3Cc4cc(C)c(OC)c(O)c4C(N3)C1C2 (stereo not shown) [Safracin E]
Target Of Assay: LOVO
Result Type: CC50
Meas Value: > 19.6 µM

Compound: COc1c(C)cc2c(c1O)C1NC(C2)C(O)N2C(CNC(=O)C(C)N)c3c(cc(C)c(OC)c3O)CC12 (stereo not shown) [Safracin P-19B]
Target Of Assay: LOVO
Result Type: CC50
Meas Value: > 19.5 µM

Compound: COc1c(C)cc2c(c1O)C1C3Cc4cc(C)c(OC)c(O)c4C(CNC(=O)C(C)N)N3C(O)C(C2)N1C (stereo not shown) [Safracin P-22B]
Target Of Assay: LOVO
Result Type: CC50
Meas Value: 18.4 µM

Compound: CCOC1=C(C)C(=O)C2=C(C1=O)C(CNC(=O)C(C)N)N1CC3Cc4cc(C)c(OCC)c(O)c4C(C1C2)N3C (stereo not shown) [Safracin A (OEt)]
Target Of Assay: LOVO
Result Type: CC50
Meas Value: 9.61 µM

Compound: COc1c(C)cc2c(c1O)C1C3Cc4cc(C)c(OC)c(O)c4C(CNC(=O)C(C)N)N3CC(C2)N1C (stereo not shown) [Safracin P-22A]
Target Of Assay: LOVO
Result Type: CC50
Meas Value: > 19.6 µM

---

# System: LOVO-DOX

Molecule: COC1=C(C)C(=O)C2=C(C1=O)C(CNC(=O)C(C)N)N1C(O)C3Cc4cc(C)c(OC)c(O)c4C(N3)C1C2 (stereo not drawn)
Target Of Assay: LOVO-DOX
Unit String: µM
GI50: 4.75
//
Molecule: CCOC1=C(C)C(=O)C2=C(C1=O)C(CNC(=O)C(C)N)N1C(O)C3Cc4cc(C)c(OCC)c(O)c4C(C1C2)N3C (stereo not drawn)
Target Of Assay: LOVO-DOX
Unit String: µM
GI50: 2.09
//
Molecule: COc1c(C)cc2c(c1O)C1C3Cc4cc(C)c(OC)c(O)c4C(CNC(=O)C(C)N)N3C(O)C(C2)N1C (stereo not drawn) [Safracin P-22B]
Target Of Assay: LOVO-DOX
Unit String: µM
GI50: 6.95

---

TGI HELA-APL by entry:
# System: HELA-APL
# Settings: Cervix

Compound: CCOC1=C(C)C(=O)C2=C(C1=O)C(CNC(=O)C(C)N)N1C(O)C3Cc4cc(C)c(OCC)c(O)c4C(C1C2)N3C (stereo not shown)
TGI HELA-APL: 0.274 µM
--
Compound: COc1c(C)cc2c(c1O)C1C3Cc4cc(C)c(OC)c(O)c4C(CNC(=O)C(C)N)N3CC(C2)N1C (stereo not shown) [Safracin P-22A]
TGI HELA-APL: 19.6 µM
--
Compound: COc1c(C)cc2c(c1O)C1C3Cc4cc(C)c(OC)c(O)c4C(CNC(=O)C(C)N)N3C(O)C(C2)N1C (stereo not shown) [Safracin P-22B]
TGI HELA-APL: 0.932 µM
--
Compound: COc1c(C)cc2c(c1O)C1NC(C2)C(O)N2C(CNC(=O)C(C)N)c3c(cc(C)c(OC)c3O)CC12 (stereo not shown) [Safracin P-19B]
TGI HELA-APL: 10 µM
--
Compound: CCOC1=C(C)C(=O)C2=C(C1=O)C(CNC(=O)C(C)N)N1CC3Cc4cc(C)c(OCC)c(O)c4C(C1C2)N3C (stereo not shown)
TGI HELA-APL: 2.32 µM
--
Compound: COC1=C(C)C(=O)C2=C(C1=O)C(CNC(=O)C(C)N)N1CC3Cc4cc(C)c(OC)c(O)c4C(N3)C1C2 (stereo not shown)
TGI HELA-APL: 7.25 µM
--
Compound: COC1=C(C)C(=O)C2=C(C1=O)C(CNC(=O)C(C)N)N1C(O)C3Cc4cc(C)c(OC)c(O)c4C(N3)C1C2 (stereo not shown)
TGI HELA-APL: 5.24 µM

---

# Tested on: LOVO-DOX
# Assay Details: cells
# Settings: read-out: LC50 LOVO-DOX
Result Type: CC50

Compound: COc1c(C)cc2c(c1O)C1C3Cc4cc(C)c(OC)c(O)c4C(CNC(=O)C(C)N)N3C(O)C(C2)N1C (stereo not shown) [Safracin P-22B]
Result Type: CC50
Meas Value: > 19 µM
--
Compound: COC1=C(C)C(=O)C2=C(C1=O)C(CNC(=O)C(C)N)N1C(O)C3Cc4cc(C)c(OC)c(O)c4C(N3)C1C2 (stereo not shown)
Result Type: CC50
Meas Value: 16.5 µM
--
Compound: CCOC1=C(C)C(=O)C2=C(C1=O)C(CNC(=O)C(C)N)N1C(O)C3Cc4cc(C)c(OCC)c(O)c4C(C1C2)N3C (stereo not shown)
Result Type: CC50
Meas Value: > 17.6 µM
--
Compound: CCOC1=C(C)C(=O)C2=C(C1=O)C(CNC(=O)C(C)N)N1CC3Cc4cc(C)c(OCC)c(O)c4C(C1C2)N3C (stereo not shown)
Result Type: CC50
Meas Value: 16.9 µM
--
Compound: COc1c(C)cc2c(c1O)C1C3Cc4cc(C)c(OC)c(O)c4C(CNC(=O)C(C)N)N3CC(C2)N1C (stereo not shown) [Safracin P-22A]
Result Type: CC50
Meas Value: > 19.6 µM
--
Compound: COc1c(C)cc2c(c1O)C1NC(C2)C(O)N2C(CNC(=O)C(C)N)c3c(cc(C)c(OC)c3O)CC12 (stereo not shown) [Safracin P-19B]
Result Type: CC50
Meas Value: > 19.5 µM
--
Compound: COC1=C(C)C(=O)C2=C(C1=O)C(CNC(=O)C(C)N)N1CC3Cc4cc(C)c(OC)c(O)c4C(N3)C1C2 (stereo not shown)
Result Type: CC50
Meas Value: 17.5 µM

---

# Tested on: K-562
# Assay Details: cells
# Settings: Homo sapiens, K562, read-out: LC50 K-562

Compound: COC1=C(C)C(=O)C2=C(C1=O)C(CNC(=O)C(C)N)N1CC3Cc4cc(C)c(OC)c(O)c4C(N3)C1C2 (stereo not shown) [Safracin E]
Unit String: µM
CC50: 15.9
--
Compound: COc1c(C)cc2c(c1O)C1C3Cc4cc(C)c(OC)c(O)c4C(CNC(=O)C(C)N)N3C(O)C(C2)N1C (stereo not shown) [Safracin P-22B]
Unit String: µM
CC50: 1.84
--
Compound: COc1c(C)cc2c(c1O)C1C3Cc4cc(C)c(OC)c(O)c4C(CNC(=O)C(C)N)N3CC(C2)N1C (stereo not shown) [Safracin P-22A]
Unit String: µM
CC50: 19.6
--
Compound: COC1=C(C)C(=O)C2=C(C1=O)C(CNC(=O)C(C)N)N1C(O)C3Cc4cc(C)c(OC)c(O)c4C(N3)C1C2 (stereo not shown) [Safracin D]
Unit String: µM
CC50: 3.78

---

Quick reference for CC50 among some molecules
# System: K-562
# Assay Details: cells
# Settings: Homo sapiens, K562, read-out: LC50 K-562

Molecule: CCOC1=C(C)C(=O)C2=C(C1=O)C(CNC(=O)C(C)N)N1C(O)C3Cc4cc(C)c(OCC)c(O)c4C(C1C2)N3C (stereo not drawn)
Unit String: µM
CC50: 3.69

Molecule: CCOC1=C(C)C(=O)C2=C(C1=O)C(CNC(=O)C(C)N)N1CC3Cc4cc(C)c(OCC)c(O)c4C(C1C2)N3C (stereo not drawn)
Unit String: µM
CC50: 1.51

Molecule: COc1c(C)cc2c(c1O)C1NC(C2)C(O)N2C(CNC(=O)C(C)N)c3c(cc(C)c(OC)c3O)CC12 (stereo not drawn) [Safracin P-19B]
Unit String: µM
CC50: 14

---

Observed GI50 values for LOVO-DOX are listed in what follows.

Compound: CCOC1=C(C)C(=O)C2=C(C1=O)C(CNC(=O)C(C)N)N1CC3Cc4cc(C)c(OCC)c(O)c4C(C1C2)N3C (stereo not shown) [Safracin A (OEt)]
Rel: =
GI50 / µM: 5.72
--
Compound: COC1=C(C)C(=O)C2=C(C1=O)C(CNC(=O)C(C)N)N1CC3Cc4cc(C)c(OC)c(O)c4C(N3)C1C2 (stereo not shown) [Safracin E]
Rel: =
GI50 / µM: 5.07
--
Compound: COc1c(C)cc2c(c1O)C1NC(C2)C(O)N2C(CNC(=O)C(C)N)c3c(cc(C)c(OC)c3O)CC12 (stereo not shown) [Safracin P-19B]
Rel: =
GI50 / µM: 14.4
--
Compound: COc1c(C)cc2c(c1O)C1C3Cc4cc(C)c(OC)c(O)c4C(CNC(=O)C(C)N)N3CC(C2)N1C (stereo not shown) [Safracin P-22A]
Rel: >
GI50 / µM: 19.6
